Entries and their measured activity score follow.
- EXPERIMENT_SUMMARY: M. tuberculosis BioA enzyme inhibitors, biochemical, single concentration, dry powder (AID 743184)
- ASSAY_CONDITIONS: at 9.99 µM; hits give high values
Quick note: give the figure in %, leave out the unit.

Q: Which measured activity score value corresponds to "COc1ccc(C(=O)N2CCN(c3ccc(C(C)=O)cc3)CC2)cc1" ?
Result: 20.7

Q: Which measured activity score value corresponds to "Cc1ccc(-c2cc(C(F)(F)F)n3nc(C(=O)Nc4cccnc4)cc3n2)cc1" ?
Result: 8.78

Q: Which measured activity score value corresponds to "O=C(O)CC/C(=C\c1ccc([N+](=O)[O-])cc1)c1nc2ccccc2s1" ?
Result: 1.57

Q: Which measured activity score value corresponds to "O=C(c1ccc2c(c1)OCO2)N1CCN(c2ccc(Cl)cc2)CC1" ?
Result: -0.291

Q: Which measured activity score value corresponds to "O=C(Nc1ccncc1)c1cc2nc(C3CC3)cc(C(F)F)n2n1" ?
Result: -0.117

In the following, a different molecule is considered.
Q: Which measured activity score value corresponds to "O=C(Nc1cccnc1)c1cc2nc(-c3cccs3)cc(C(F)(F)F)n2n1" ?
Result: 6.22

* * *

- EXPERIMENT_SUMMARY: M. tuberculosis BioA enzyme inhibitors, biochemical, single concentration, dry powder (AID 743184)
- ASSAY_CONDITIONS: at 9.99 µM; hits give high values
RECORDED_METRIC: activity score (%)
Quick note: give the figure in %, leave out the unit.

Example entries and their recorded answers appear below.
Q: Which measured activity score value corresponds to "O=C(Nc1cccc(Cl)c1)N1CCN(c2ccccc2)CC1" ?
Result: 3.11

Q: Which measured activity score value corresponds to "CC(=O)c1ccc(N2CCN(C(=O)c3ccc4ncsc4c3)CC2)cc1" ?
Result: -4.47

Q: Which measured activity score value corresponds to "Cc1cc(C)n2nc(C(=O)Nc3cccnc3)nc2n1" ?
Result: 11.6

Q: Which measured activity score value corresponds to "Cc1nc2cc(NC(=O)N3CCN(c4ccccc4)CC3)ccc2o1" ?
Result: 4.18

Further cases:
Q: Which measured activity score value corresponds to "COc1ccc(N2CCN(C(=O)c3ccc4c(c3)OCO4)CC2)cc1" ?
Result: -1.28

Q: Which measured activity score value corresponds to "CC(=O)c1ccc(N2CCN(C(=O)c3ccccc3)CC2)cc1" ?
Result: -3.73

Q: Which measured activity score value corresponds to "CC(=O)c1ccc(N2CCN(C(=O)c3ccc4c(c3)OCCO4)CC2)cc1" ?
Result: -1.22

Q: Which measured activity score value corresponds to "O=C(Nc1cccnc1)c1cnn2c(C(F)(F)F)cc(-c3ccccc3)nc12" ?
Result: 11.8

Q: Which measured activity score value corresponds to "O=C(Nc1ccc(Cl)cc1)c1cc2nc(C3CC3)cc(C(F)(F)F)n2n1" ?
Result: -6.7

Q: Which measured activity score value corresponds to "O=C(Nc1ccc(Cl)c(-c2nc3ccccc3[nH]2)c1)c1cccnc1" ?
Result: 5.48

Q: Which measured activity score value corresponds to "O=C(Nc1cccnc1)c1cnn2c(C(F)F)cc(C3CC3)nc12" ?
Result: -3.98

Q: Which measured activity score value corresponds to COC(=O)c1c(C(=O)OC)c(-c2cccc(F)c2)n2c1CS(=O)C2 (stereo not drawn) ?
Result: -8.08

Q: Which measured activity score value corresponds to "Cc1ccc(/C=C(\CC(=O)O)c2nc3ccccc3s2)cc1[N+](=O)[O-]" ?
Result: -2.58
